# credit: patent US20200199204A1

neutralization IC50 values for the binders below.
- tested_system: HIV-1 Env of PVO.04 (HIV-1)
- assay_text: cell-based or functional assay
property_name: neutralization IC50 (µg/mL)

INSERT INTO results (binder, unit_of_measurement, operator, readout_value) VALUES
  ('CAP256-VRC26.09 (antibody, V domains shown) VH: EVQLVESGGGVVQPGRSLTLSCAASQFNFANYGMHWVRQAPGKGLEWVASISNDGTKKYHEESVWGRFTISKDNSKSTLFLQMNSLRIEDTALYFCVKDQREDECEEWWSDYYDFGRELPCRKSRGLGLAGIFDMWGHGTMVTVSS VL: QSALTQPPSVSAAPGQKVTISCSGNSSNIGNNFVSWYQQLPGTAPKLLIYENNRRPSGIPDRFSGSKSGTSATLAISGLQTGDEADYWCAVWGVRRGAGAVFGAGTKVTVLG', 'µg/mL', '>', 50),
  ('CAP256-VRC26.11 (antibody, V domains shown) VH: EVQLVESGGGVVPPGKSLTLSCVASRFTFSAFGMHWVRQAPGKGLEWVASISFAGIKKYYADSVKGRFSISRDNSNTLFLQMNGLRGEDTGLYHCVKDMRELECEEWASDYYDFGKPQPCLDRRGVSGISAWWGPGTMVTVSS VL: QSVLTQPPSVSAAPGQNVTISCSGPPSHIEKNDVSWYQRLPGMAPKMVIYESKRRPLGIPVRFSASRSGSSATLVITGLQTADEADYYCGTWDGRMNFGTGTTVSVLG', 'µg/mL', '=', 10.8),
  ('CAP256-VRC26.10 (antibody, V domains shown) VH: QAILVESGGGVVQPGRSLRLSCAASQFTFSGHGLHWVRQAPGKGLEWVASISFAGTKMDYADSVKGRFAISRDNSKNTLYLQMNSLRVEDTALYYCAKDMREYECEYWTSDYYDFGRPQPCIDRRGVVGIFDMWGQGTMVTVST VL: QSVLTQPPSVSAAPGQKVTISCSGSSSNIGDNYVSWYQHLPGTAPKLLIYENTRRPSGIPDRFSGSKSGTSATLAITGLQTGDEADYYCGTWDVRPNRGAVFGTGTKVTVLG', 'µg/mL', '=', 2.48),
  ('CAP256-VRC26.05 (antibody, V domains shown) VH: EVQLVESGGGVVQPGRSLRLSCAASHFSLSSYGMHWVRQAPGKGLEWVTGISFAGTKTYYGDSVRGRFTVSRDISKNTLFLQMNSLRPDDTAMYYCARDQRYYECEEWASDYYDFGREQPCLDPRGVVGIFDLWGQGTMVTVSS VL: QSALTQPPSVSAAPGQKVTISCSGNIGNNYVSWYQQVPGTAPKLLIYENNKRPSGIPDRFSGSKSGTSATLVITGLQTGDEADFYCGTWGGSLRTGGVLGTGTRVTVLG', 'µg/mL', '=', 44.4);
